- TEST_SYSTEM: Glucocorticoid receptor (Homo sapiens, UniProt P04150)
- Sequence (P04150 whole entry): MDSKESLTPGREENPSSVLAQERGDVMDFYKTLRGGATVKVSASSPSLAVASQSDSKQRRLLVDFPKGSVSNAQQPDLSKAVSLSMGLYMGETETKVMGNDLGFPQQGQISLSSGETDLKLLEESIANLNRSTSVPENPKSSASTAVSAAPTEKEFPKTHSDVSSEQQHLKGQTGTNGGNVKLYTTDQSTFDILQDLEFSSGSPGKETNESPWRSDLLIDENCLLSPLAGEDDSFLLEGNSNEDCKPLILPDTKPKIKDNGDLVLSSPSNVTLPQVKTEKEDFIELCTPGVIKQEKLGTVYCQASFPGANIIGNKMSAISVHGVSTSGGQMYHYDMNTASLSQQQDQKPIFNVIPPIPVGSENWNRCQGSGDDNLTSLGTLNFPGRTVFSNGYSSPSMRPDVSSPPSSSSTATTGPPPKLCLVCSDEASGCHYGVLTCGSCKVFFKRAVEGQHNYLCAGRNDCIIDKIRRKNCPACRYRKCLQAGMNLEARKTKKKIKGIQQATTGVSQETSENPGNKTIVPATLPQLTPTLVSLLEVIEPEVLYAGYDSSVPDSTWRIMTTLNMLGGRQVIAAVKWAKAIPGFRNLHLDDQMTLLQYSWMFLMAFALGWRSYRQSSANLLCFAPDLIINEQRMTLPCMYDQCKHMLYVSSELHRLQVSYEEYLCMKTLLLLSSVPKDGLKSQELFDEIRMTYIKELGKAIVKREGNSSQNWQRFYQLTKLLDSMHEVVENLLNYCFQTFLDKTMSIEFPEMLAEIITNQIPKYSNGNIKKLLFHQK
- ASSAY_COMMENT: Inhibition of human glucocorticoid receptor
pIC50: −log10 of the molar value.
OBSERVATION_TYPE: pIC50

C[C@]12CCC(=O)C=C1CC[C@@H]1[C@@H]2[C@@H](O)C[C@@]2(C)[C@H]1CC[C@]2(O)C(=O)CSc1nc2ncccc2s1 = 8.33
Cc1nc(SCC(=O)[C@@]2(O)CC[C@H]3[C@@H]4CCC5=CC(=O)CC[C@]5(C)[C@H]4[C@@H](O)C[C@@]32C)sc1C = 8.37
C[C@]12CCC(=O)C=C1CC[C@@H]1[C@@H]2[C@@H](O)C[C@@]2(C)[C@H]1CC[C@]2(O)C(=O)CSc1ccc2ccccc2n1 = 8.18

---

- Tested on: Rattus norvegicus
- ASSAY_COMMENT: Antiinflammatory activity in Brown Norway rat lung inflammation model assessed as total cell inhibition at 10 mg/kg, po for 3 days
- Format: functional
- EXPERIMENTAL_PARAMETERS: 72 h
OBSERVATION_TYPE: inhibition in vivo at 10 mg/kg (%)
State the answer as a number, implicitly in %.

Use these answered entries as a reference point.
C[C@]12Cc3cnn(-c4ccc(F)cc4)c3C=C1CC[C@@H]1[C@@H]2[C@@H](O)C[C@@]2(C)[C@H]1CC[C@]2(O)C(=O)CSc1nc2ncccc2o1 = 48
Cn1c(SCC(=O)[C@@]2(O)CC[C@@]3(C)[C@@H]4CCC5=CC(=O)CC[C@]5(C)[C@H]4[C@@H](O)C[C@@]32C)nc2ccccc21 = 39
C[C@]12CCC(=O)C=C1CC[C@@H]1[C@@H]2[C@@H](O)C[C@@]2(C)[C@H]1CC[C@]2(O)C(=O)CSc1cnc2ccccc2n1 = 39

Form entry - test system: Rattus norvegicus; read-out: inhibition in vivo at 10 mg/kg; molecule: C[C@]12Cc3cnn(-c4ccccc4)c3C=C1CC[C@@H]1[C@@H]2[C@@H](O)C[C@@]2(C)[C@H]1CC[C@]2(O)C(=O)CSc1nc2ncccc2o1
62

Could you do the same for C[C@]12C=CC(=O)C=C1CC[C@@H]1[C@@H]2[C@@H](O)C[C@@]2(C)[C@H]1CC[C@]2(O)C(=O)CO [PREDNISOLONE] , please?
56

---

- TEST_SYSTEM: Glucocorticoid receptor (Homo sapiens, UniProt P04150)
- ASSAY_COMMENT: Transactivation activity at human glucocorticoid receptor in cells co-expressing GRE by luciferase reporter gene assay relative to control
- EXPERIMENTAL_PARAMETERS: read-out: Efficacy
OBSERVATION_TYPE: Emax (%)

C[C@]12Cc3cnn(C4CCCCC4)c3C=C1CC[C@@H]1[C@@H]2[C@@H](O)C[C@@]2(C)[C@H]1CC[C@]2(O)C(=O)CSc1ccc2ccccc2n1 = 71

(1) C[C@]12CCC(=O)C=C1CC[C@@H]1[C@@H]2[C@@H](O)C[C@@]2(C)[C@H]1CC[C@]2(O)C(=O)CSc1ccc2ccccc2n1
(2) Cc1nc(SCC(=O)[C@@]2(O)CC[C@H]3[C@@H]4CCC5=CC(=O)CC[C@]5(C)[C@H]4[C@@H](O)C[C@@]32C)sc1C
I'm curious whether 1 or 2 has the smaller Emax number. Which is it? The response must carry the label of the picked entry.
1

Cited source for all entries: ChEMBL document CHEMBL2021850
